Origin of values: patent EP4603105A1

# TARGET_OR_SYSTEM: GDP-bound KRAS wild-type protein (Homo sapiens)
# Sequence (P01116 1-188 isoform P01116-2): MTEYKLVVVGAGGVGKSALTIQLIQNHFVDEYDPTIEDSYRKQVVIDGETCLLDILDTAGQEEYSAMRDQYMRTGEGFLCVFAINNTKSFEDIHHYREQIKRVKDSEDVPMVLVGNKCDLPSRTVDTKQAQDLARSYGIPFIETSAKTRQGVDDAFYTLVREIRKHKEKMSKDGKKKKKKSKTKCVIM
# ASSAY_SUMMARY: Binding to KRAS by surface plasmon resonance (SPR), dissociation constant KD
# APPLIED_CONDITIONS: 1:1 binding model
# Description: Surface plasmon resonance was used to analyze the binding affinity of compounds for KRAS, NRAS, and HRAS. […] The resulting sensorgram was subjected to curve fitting based on a 1:1 binding model on Biacore Insight Evaluation Software or T200 Evaluation Software, and thereby the dissociation constant KD of each compound with respect to KRAS, NRAS, and HRAS was determined. […]
PROPERTY_LABEL: Kd (nM)
Write the answer as a number in nM, unit excluded.

Known results for molecules:
Inquiry: Entry CCC[C@H]1C(=O)N[C@@H](CC(C)C)C(=O)N(CC)CC(=O)N(C)[C@H]2C/C=C\CCN(C2=O)[C@@H](Cc2ccc(C)cc2)C(=O)N(C)CC(=O)N[C@@H](CCc2cc(F)c(C(F)(F)F)c(F)c2)C(=O)N2C[C@H](OCC)C[C@H]2C(=O)NC2(CC(C)(C)C2)C(=O)N(C)[C@@H](C2CCCC2)C(=O)N(C)[C@H](C(=O)N(C)C)CC(=O)N1C has what Kd?
Reply text: 2.9

Inquiry: Entry CCC[C@H]1C(=O)N[C@@H]([C@@H](C)CC)C(=O)N(C)CC(=O)N(C)[C@H]2C/C=C\CCN(C2=O)[C@@H](Cc2ccc(C)cc2)C(=O)N(C)CC(=O)N[C@@H](CCc2ccc3c(C)cn(C)c3c2)C(=O)N2C[C@H](OCC)C[C@H]2C(=O)NC2(CC(C)(C)C2)C(=O)N(C)[C@@H](C(CC)CC)C(=O)N(C)[C@H](C(=O)N(C)C)CC(=O)N1C has what Kd?
Reply text: 3

Others:
Inquiry: Entry CCC(CC)[C@H]1C(=O)N(C)[C@H](C(=O)N(C)C)CC(=O)N(C)[C@@H](COC)C(=O)N[C@@H]([C@@H](C)CC)C(=O)N(C)CC(=O)N(C)[C@H]2C/C=C\CCN(C2=O)[C@@H](Cc2ccc(C)cc2)C(=O)N(C)CC(=O)N[C@@H](CCc2cc(F)c(C(F)(F)F)c(F)c2)C(=O)N2CCCC[C@H]2C(=O)NC2(CC(C)(C)C2)C(=O)N1C has what Kd?
Reply text: 1.1
